Biological target: Interleukin-1 beta (Homo sapiens)
Sequence (P01584 117-269 limits assumed): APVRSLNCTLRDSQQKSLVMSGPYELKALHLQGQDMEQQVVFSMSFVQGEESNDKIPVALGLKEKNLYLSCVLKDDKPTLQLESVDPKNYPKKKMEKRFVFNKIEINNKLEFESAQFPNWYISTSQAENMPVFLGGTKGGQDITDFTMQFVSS
Bridge positions count the residues as written; N and C are the ends. Peptide text beside a SMILES is read from it.
QUANTITY_KIND: IC50 (µM)
The response must be a number in µM with no trailing unit.

| MOLECULE | TARGET_UNDER_TEST | UNIT_SPEC | IC50 |
| --- | --- | --- | --- |
| CC(C)c1cc(-c2cc(C(=O)O)cn3cc(C(=O)N4CCN(S(=O)(=O)c5ccccc5)CC[C@@H]4C(=O)NCCN4CCOCC4)nc23)ccc1C=O | Interleukin-1 beta (Homo sapiens) | µM | 78.4 |
| CC(C)c1cc(-c2cc(C(=O)O)cn3cc(C(=O)N4CCN(S(=O)(=O)c5ccccc5)CCC4C(=O)NCCN4CCOCC4)nc23)ccc1C=O (racemic) | Interleukin-1 beta (Homo sapiens) | µM | 11 |
| O=Cc1ccc(-c2cc(C(=O)O)cn3cc(C(=O)N4CCN(S(=O)(=O)c5ccccc5)CC[C@H]4C(=O)NCCN4CCOCC4)nc23)cc1C(F)(F)F | Interleukin-1 beta (Homo sapiens) | µM | 1.2 |
| NCCCC[C@H](NC(=O)CNC(=O)[C@@H]1CSCC(=O)N[C@@H](Cc2ccccc2)C(=O)N[C@@H](Cc2c[nH]c3ccccc23)C(=O)N[C@@H](CC(=O)O)C(=O)N[C@@H](CO)C(=O)N[C@@H](Cc2c[nH]c3ccccc23)C(=O)NCC(=O)N[C@@H](Cc2ccc(O)cc2)C(=O)N[C@@H](Cc2c[nH]c3ccccc23)C(=O)N[C@@H](Cc2ccc(O)cc2)C(=O)NCC(=O)N2CCC[C@H]2C(=O)N[C@@H](Cc2c[nH]c3ccccc23)C(=O)N[C@@H](CC(=O)O)C(=O)N1)C(N)=O ({CH2CO}-FWDSWGYWYGPWDCGK-NH2; thioether N-14) | Interleukin-1 beta (Homo sapiens) | µM | 14 |

Value of IC50 reported for the molecule CC(C)c1cc(-c2cc(C(=O)O)cn3cc(C(=O)N4CCN(S(=O)(=O)c5ccccc5)CC[C@H]4C(=O)NCCN4CCOCC4)nc23)ccc1C=O is 8.3
